These measurements were taken from ChEMBL document CHEMBL3885881.

organism: Rattus norvegicus; assay: DrugMatrix - Regimen: Daily Repeat; format: toxicity, organism-based, Sprague-Dawley; parameters: regimen Daily Repeat, gender Male, age 6-8 weeks; details: in vivo, po, 0 mg/kg, 72 h, tissue Plasma, route oral GAVAGE, dose level Control, time 3 day, vehicle 100 % WATER
met if CARBON DIOXIDE is below 30 mmol/L. not met if not; exact matches included in not met.

{"columns": ["MOLECULE", "CLASS NAME"],
 "data": [
  ["CC(C)C[C@H](NC(=O)[C@@H](O)[C@H](N)Cc1ccccc1)C(=O)O", "not met"],
  ["C[N+](C)(C)CCO.[Cl-] [CHOLINE CHLORIDE]", "met"],
  ["COC(=O)C1=C(C)NC(C)=C(C(=O)OCC(C)C)C1c1ccccc1[N+](=O)[O-] (stereo unspecified)", "not met"],
  ["CC(C)NCC(O)COc1cccc2ccccc12 (stereo unspecified)", "met"],
  ["Cc1ncc([N+](=O)[O-])n1CCO", "met"],
  ["C[C@@H]1C[C@@H]([C@H](O)CC2CC(=O)NC(=O)C2)C(=O)[C@@H](C)C1 [CYCLOHEXIMIDE]", "not met"],
  ["COc1cc2ncnc(Nc3ccc(F)c(Cl)c3)c2cc1OCCCN1CCOCC1", "not met"],
  ["ClC(Cl)Cl [CHLOROFORM]", "met"],
  ["Nc1ccn([C@@H]2CS[C@H](CO)O2)c(=O)n1", "not met"],
  ["CC(C)(C)c1ccc(C(=O)CCCN2CCC(OC(c3ccccc3)c3ccccc3)CC2)cc1", "met"]
]}

###

species on record: Rattus norvegicus; test: DrugMatrix - Regimen: Daily Repeat; assay type: toxicity, organism-based, Sprague-Dawley; set-up: regimen Daily Repeat, gender Male, age 6-8 weeks; details: in vivo, iv, 0 mg/kg, 120 h, tissue Blood, dose level Control, time 5 day, vehicle 100 % SALINE
RECORDED ENDPOINT: MEAN CORPUSCULAR HEMOGLOBIN CONCENTRATION

{"columns": ["COMPOUND", "ENDPOINT VALUE"],
 "data": [
  ["CCc1c2c(nc3ccc(OC(=O)N4CCC(N5CCCCC5)CC4)cc13)-c1cc3c(c(=O)n1C2)COC(=O)[C@]3(O)CC", "39.8 G/DL"],
  ["COc1cccc2c1C(=O)c1c(O)c3c(c(O)c1C2=O)C[C@@](O)(C(=O)CO)C[C@@H]3O[C@H]1C[C@H](N)[C@H](O)[C@H](C)O1", "39.2 G/DL"],
  ["COc1cccc2c1C(=O)c1c(O)c3c(c(O)c1C2=O)C[C@@](O)(C(=O)CO)C[C@@H]3O[C@H]1C[C@H](N)[C@@H](O)[C@H](C)O1 [EPIRUBICIN]", "39.8 G/DL"]
]}

###

organism: Rattus norvegicus; assay: DrugMatrix - Regimen: Daily Repeat; format: toxicity, organism-based, Sprague-Dawley; set-up: regimen Daily Repeat, gender Male, age 6-8 weeks; conditions: in vivo, po, 0 mg/kg, 72 h, tissue Plasma, route oral GAVAGE, dose level Control, time 3 day, vehicle .5 % CMC
# maps each entry to its ALKALINE PHOSPHATASE

{"columns": ["MOLECULE", "ALKALINE PHOSPHATASE, u/L"],
 "data": [
  ["O=C1CCC(N2C(=O)c3ccccc3C2=O)C(=O)N1 (configuration not stated) [THALIDOMIDE]", 411.83],
  ["C[C@]1(Cn2ccnn2)[C@H](C(=O)O)N2C(=O)C[C@H]2S1(=O)=O", 398.83],
  ["O=[N+]([O-])c1ccccc1", 426.33],
  ["C[C@](O)(CS(=O)(=O)c1ccc(F)cc1)C(=O)Nc1ccc(C#N)c(C(F)(F)F)c1 [(R)-BICALUTAMIDE]", 346.83],
  ["N=C(N)NC(=O)c1nc(Cl)c(N)nc1N [AMILORIDE]", 372],
  ["CNC(=C[N+](=O)[O-])NCCSCc1ccc(CN(C)C)o1", 378.5],
  ["OC(CCN1CCCCC1)(c1ccccc1)C1CCCCC1 (configuration not stated)", 374.5]
]}

###

species on record: Rattus norvegicus; assay: DrugMatrix - Regimen: Daily Repeat; format: toxicity, organism-based, Sprague-Dawley; parameters: regimen Daily Repeat, gender Male, age 6-8 weeks; conditions: in vivo, po, 0 mg/kg, 72 h, tissue Plasma, route oral GAVAGE, dose level Control, time 3 day, vehicle .5 % CMC

{"columns": ["MOLECULE", "PHOSPHORUS"],
 "data": [
  ["C[C@]1(Cn2ccnn2)[C@H](C(=O)O)N2C(=O)C[C@H]2S1(=O)=O", "12.25 mg/dL"],
  ["CC(=O)CC(c1ccccc1)c1c(O)c2ccccc2oc1=O (stereo unspecified)", "13.25 mg/dL"],
  ["CO[C@H]1/C=C/O[C@@]2(C)Oc3c(C)c(O)c4c(c3C2=O)C2=NC3(CCN(CC(C)C)CC3)NC2=C(NC(=O)/C(C)=C\\C=C\\[C@H](C)[C@H](O)[C@@H](C)[C@@H](O)[C@@H](C)[C@H](OC(C)=O)[C@@H]1C)C4=O", "11.67 mg/dL"],
  ["CN1C(=O)COc2c(C(=O)NC3CN4CCC3CC4)cc(Cl)cc21 (stereo unspecified)", "11.97 mg/dL"],
  ["O=C1CCC(N2C(=O)c3ccccc3C2=O)C(=O)N1 (stereo unspecified) [THALIDOMIDE]", "11.23 mg/dL"],
  ["Cc1onc(-c2ccccc2)c1-c1ccc(S(N)(=O)=O)cc1", "11.43 mg/dL"]
]}

###

species: Rattus norvegicus; experiment: DrugMatrix - Regimen: Daily Repeat; type: toxicity, organism-based, Sprague-Dawley; design: regimen Daily Repeat, gender Male, age 6-8 weeks; settings: in vivo, po, 0 mg/kg, 72 h, tissue Plasma, route oral GAVAGE, dose level Control, time 3 day, […]

{"columns": ["COMPOUND", "UNIT OF MEASURE", "ALBUMIN"],
 "data": [
  ["Clc1ccc(Cl)cc1", "G/DL", 4.17],
  ["Cc1cccc(Nc2ccncc2S(=O)(=O)NC(=O)NC(C)C)c1 [TORSEMIDE]", "G/DL", 4],
  ["CC(=O)Nc1cccc(O)c1", "G/DL", 4.18],
  ["CC/C(=C(/CC)c1ccc(O)cc1)c1ccc(O)cc1", "G/DL", 4.02],
  ["COc1ccc2[nH]c([S+]([O-])Cc3ncc(C)c(OC)c3C)nc2c1 (configuration not stated)", "G/DL", 3.98],
  ["O=C(O)Cc1ccccc1Nc1c(Cl)cccc1Cl", "G/DL", 4.08],
  ["CC(=O)Nc1ccc(O)cc1", "G/DL", 4.15]
]}

###

organism: Rattus norvegicus; test: DrugMatrix - Regimen: Daily Repeat; assay type: toxicity, organism-based, Sprague-Dawley; parameters: regimen Daily Repeat, gender Male, age 6-8 weeks; settings: in vivo, po, 0 mg/kg, 72 h, tissue Blood, route oral GAVAGE, dose level Control, time 3 day, vehicle .5 % CMC
RECORDED ENDPOINT: MEAN CORPUSCULAR HEMOGLOBIN CONCENTRATION (G/DL)

{"columns": ["COMPOUND", "ENDPOINT VALUE"],
 "data": [
  ["O=[N+]([O-])c1ccccc1", 32.23],
  ["C[C@]1(Cn2ccnn2)[C@H](C(=O)O)N2C(=O)C[C@H]2S1(=O)=O", 36.85],
  ["CC[C@@H](CO)NCCN[C@@H](CC)CO", 39.17],
  ["N=C(N)NC(=O)c1nc(Cl)c(N)nc1N [AMILORIDE]", 39.17],
  ["Cc1onc(-c2ccccc2)c1-c1ccc(S(N)(=O)=O)cc1", 31],
  ["C[C@](O)(CS(=O)(=O)c1ccc(F)cc1)C(=O)Nc1ccc(C#N)c(C(F)(F)F)c1 [(R)-BICALUTAMIDE]", 39.4],
  ["O=C1CCC(N2C(=O)c3ccccc3C2=O)C(=O)N1 (stereo not drawn) [THALIDOMIDE]", 30.47],
  ["CO[C@H]1/C=C/O[C@@]2(C)Oc3c(C)c(O)c4c(c3C2=O)C2=NC3(CCN(CC(C)C)CC3)NC2=C(NC(=O)/C(C)=C\\C=C\\[C@H](C)[C@H](O)[C@@H](C)[C@@H](O)[C@@H](C)[C@H](OC(C)=O)[C@@H]1C)C4=O", 38.85]
]}

###

species on record: Rattus norvegicus; assay: DrugMatrix - Regimen: Daily Repeat; format: toxicity, organism-based, Sprague-Dawley; design: regimen Daily Repeat, gender Male, age 6-8 weeks; details: in vivo, iv, 0 mg/kg, 120 h, tissue Plasma, dose level Control, time 5 day, vehicle 100 % SALINE
# maps each entry to its LACTATE DEHYDROGENASE
RECORDED ENDPOINT: LACTATE DEHYDROGENASE (u/L)

{"columns": ["COMPOUND", "ENDPOINT VALUE"],
 "data": [
  ["COc1cccc2c1C(=O)c1c(O)c3c(c(O)c1C2=O)C[C@@](O)(C(=O)CO)C[C@@H]3O[C@H]1C[C@H](N)[C@H](O)[C@H](C)O1 [DOXORUBICIN]", 75.67],
  ["CC(=O)N[C@@H]1[C@H](Oc2c3cc4cc2Oc2ccc(cc2Cl)[C@@H](O[C@@H]2O[C@@H](CO)[C@@H](O)[C@H](O)[C@@H]2NC(C)=O)[C@@H]2NC(=O)[C@H](NC(=O)[C@@H]4NC(=O)[C@H]4NC(=O)[C@@H](Cc5ccc(c(Cl)c5)O3)NC(=O)[C@H](N)c3ccc(O)c(c3)Oc3cc(O)cc4c3)c3ccc(O)c(c3)-c3c(O[C@H]4O[C@H](CO)[C@@H](O)[C@@H](O)[C@@H]4O)cc(O)cc3[C@@H](C(=O)O)NC2=O)O[C@@H](CO)[C@@H](O)[C@@H]1O", 405.5],
  ["CCC1=C[C@@H]2CN(C1)Cc1c([nH]c3ccccc13)[C@@](C(=O)OC)(c1cc3c(cc1OC)N(C)[C@H]1[C@@](O)(C(=O)OC)[C@H](OC(C)=O)[C@]4(CC)C=CCN5CC[C@]31[C@@H]54)C2 [VINORELBINE]", 320.17],
  ["CC[C@]1(O)C[C@@H]2CN(CCc3c([nH]c4ccccc34)[C@@](C(=O)OC)(c3cc4c(cc3OC)N(C)[C@H]3[C@@](O)(C(=O)OC)[C@H](OC(C)=O)[C@]5(CC)C=CCN6CC[C@]43[C@@H]65)C2)C1 [VINBLASTINE]", 188],
  ["COc1cccc2c1C(=O)c1c(O)c3c(c(O)c1C2=O)C[C@@](O)(C(=O)CO)C[C@@H]3O[C@H]1C[C@H](N)[C@@H](O)[C@H](C)O1 [EPIRUBICIN]", 603.83]
]}
